Listed below: pIC50 values for each entry.
- TARGET_OR_SYSTEM: human muscarinic acetylcholine M3 receptor (M3-ACh) (Homo sapiens, UniProt P20309)
- Construct: expressed in transfected cells; host or cells: CHO-K1 (Chinese Hamster Ovary) cell membranes
- Sequence (P20309 whole entry): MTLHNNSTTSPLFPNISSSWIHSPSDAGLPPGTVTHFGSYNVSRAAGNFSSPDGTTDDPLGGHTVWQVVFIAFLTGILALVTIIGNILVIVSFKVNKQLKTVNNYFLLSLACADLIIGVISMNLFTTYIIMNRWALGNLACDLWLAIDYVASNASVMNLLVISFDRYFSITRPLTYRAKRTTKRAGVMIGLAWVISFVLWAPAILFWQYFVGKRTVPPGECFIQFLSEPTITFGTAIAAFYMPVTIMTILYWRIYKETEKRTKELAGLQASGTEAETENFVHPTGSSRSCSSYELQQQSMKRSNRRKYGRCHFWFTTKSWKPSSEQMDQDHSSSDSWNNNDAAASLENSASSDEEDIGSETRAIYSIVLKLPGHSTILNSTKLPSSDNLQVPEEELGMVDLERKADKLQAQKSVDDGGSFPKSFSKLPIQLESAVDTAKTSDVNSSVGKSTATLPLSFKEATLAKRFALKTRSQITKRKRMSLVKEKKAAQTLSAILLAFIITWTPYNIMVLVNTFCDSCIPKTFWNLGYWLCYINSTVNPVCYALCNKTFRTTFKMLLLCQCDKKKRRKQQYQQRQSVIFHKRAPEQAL
- ASSAY_PROTOCOL: biochemical
- Type: binding
- ASSAY_CONDITIONS: pIC50 (M3 Binding IC50 classes)
pIC50: −log10 of the molar value.

{"MOLECULE": "CN(C(=O)C[N+]12CCC(CC1)[C@@H](OC(=O)C(C)(c1cccs1)N1CCCCC1)C2)c1cccc(F)c1 (single isomer, unassigned)", "REPORTED_MEASUREMENT": "8.00 to 8.70"}
{"MOLECULE": "CC(C(=O)O[C@H]1C[N+]2(Cc3nc(-c4ccccc4)no3)CCC1CC2)(c1cccs1)N1CCSCC1 (single isomer, unassigned)", "REPORTED_MEASUREMENT": "> 8.70"}
{"MOLECULE": "CC(C(=O)O[C@H]1C[N+]2(CCCc3cccnc3)CCC1CC2)(c1ccccc1)N1CCCCCC1 (single isomer, unassigned)", "REPORTED_MEASUREMENT": "> 8.70"}
{"MOLECULE": "CC(C(=O)O[C@H]1C[N+]2(CC(=O)c3cccc(F)c3)CCC1CC2)(c1cccs1)N1CCCCC1 (single isomer, unassigned)", "REPORTED_MEASUREMENT": "> 8.70"}
{"MOLECULE": "CC(C(=O)O[C@H]1C[N+]2(CC(=O)Nc3ccon3)CCC1CC2)(c1ccccc1)N1CCCCCC1 (single isomer, unassigned) [Example 111]", "REPORTED_MEASUREMENT": "8.00 to 8.70"}

Could you now look at the following molecule, please?
Inquiry: State the recorded pIC50 for this entry: Cc1cnc(NC(=O)C[N+]23CCC(CC2)[C@@H](OC(=O)C(C)(c2ccccc2)N2CCCCCC2)C3)cn1 (single isomer, unassigned)
Reply text: > 8.70
